# Test system: OVCAR-8 ovarian
# ASSAY EXPLANATION: NCI tumour cell line growth inhibition, 48 h; in the data active = GI50 below about 0.43 µM; inactive = the rest
Lab note: assign the record to one of active, inactive

Here's what some known entries look like.
1. Fc1ccc(-c2nn3ccccc3c2-c2ccncc2)cc1; inactive
2. O=C(Nc1cc(Cl)cc(Cl)c1)c1cccc(NC2=C(Cl)C(=O)N(Cc3ccccc3)C2=O)c1; inactive

# outcome recorded in this test, key = "CCN(CC)c1ccc(-c2cc(-c3cc(OC)c(OC)c(OC)c3)nc(N3CCC(O)CC3)c2C#N)cc1"
inactive

Hello, I am checking results. What call was entered for "CCC(=O)N1C/C(=C/c2ccc(Br)cc2)C(=O)/C(=C/c2ccc(Br)cc2)C1" ?
inactive

Please state the recorded outcome for this compound: COc1ccccc1[As]=[As]c1ccccc1OC (stereo not given)
active

Recorded test outcome, item "CN(C)Cc1ccc(NC(=O)c2cncc(C#Cc3cnc(N)c4ncccc34)c2)cc1F"
inactive

What classification did CCN1C(=O)N(CC)C2C1NN=c1s/c(=C3\C(=O)N(C4CCCC4)c4ccccc43)c(=O)n12 (stereo not given) end up with in this test?
inactive

---

# System: 786-0 renal
# ASSAY EXPLANATION: NCI tumour cell line growth inhibition, 48 h
Let's look at some compounds and their measured GI50.

1) CNC(=O)c1c(F)cccc1Nc1nc(Nc2cc3c(cc2OC)CCN3C(=O)CN(C)C)nc2[nH]ccc12; 11.3 µM

Any idea what its GI50 is? The compound is "[N-]=[N+]=NCCCn1c2c(c3ccc([N+](=O)[O-])cc3c1=O)C(=O)c1cc(-c3ccccc3)ccc1-2"
> 100 µM

Given "CCCCCCCCCCCCN=C(N)c1ccc(N2CCN(c3ccc(C(N)=NCCCCCCCCCCCC)cc3)CC2)cc1" , state its recorded GI50.
6.23 µM

Can you share its GI50? I mean this compound: "O=C(NCCOCCOCCOCCNC(=O)c1cc2c(o1)C(=O)c1ccccc1C2=O)NC12CC3CC(CC(C3)C1)C2"
2.89 µM

Given the compound "CS(=O)(=O)c1cccc(Nc2ncc3cc(-c4ccccc4Cl)ccc3n2)c1" , what is its reported GI50?
1.38 µM

What measured GI50 goes with "O=C(Nc1cc(F)c(F)cc1C(=O)O)c1ccc(-n2ccnc2)nn1" ?
> 100 µM

// GI50 lookup, key: "CC(=O)/C(Br)=C/c1ccc(Br)o1"
16.5 µM

// lookup GI50 for "CCC(=O)N1C/C(=C/c2ccc(Br)cc2)C(=O)/C(=C/c2ccc(Br)cc2)C1"
0.546 µM

Reported GI50 for "C=C1C(=O)O[C@H]2[C@H]1CC/C(COC(=O)/C=C\C(=O)NCc1ccc(Cn3c(=O)sn(CCI)c3=O)cc1)=C\CC[C@@]1(C)O[C@@H]21" : what is it?
2.6 µM

---

// reported TGI for each item listed
# System: IGROV1 ovarian
# ASSAY EXPLANATION: NCI tumour cell line growth inhibition, 48 h

1. c1ccc(-c2c(-c3cccs3)[nH]c(-c3cccs3)c2-c2ccccn2)nc1; 59.3 µM
2. CCc1cc2c(O)c(c1)Cc1cc(CC)cc(c1O)Cc1cc(CC)cc(c1O)Cc1cc(CC)cc(c1O)Cc1cc(CC)cc(c1O)Cc1cc(CC)cc(c1O)Cc1cc(CC)cc(c1O)C2; > 100 µM
3. O=C1c2cccc(O)c2C(=O)c2c(O)cccc21; > 100 µM
4. C=CCOCCC(CC=C)C(=O)CC(=O)OC (centres undefined); > 100 µM
5. COC(=O)c1ccc(C)cc1CC1Cc2cccc(C)c2C1=O (centres undefined); > 100 µM

Entry "c1cc2nnc1SCCSCCSCCSc1ccc(nn1)SCCSCCSCCS2" : reported TGI = ?
> 100 µM

Using the record for "CCc1c(CNC2=NCCN2)c(CC)c(CNC2=NCCN2)c(CC)c1CNC1=NCCN1" , report its TGI.
> 100 µM

Field request: TGI | item: "Cc1ccc(-c2nc(-c3nccc4ccccc34)oc2-c2ccccc2)cc1"
> 100 µM

Consider the molecule shown here: "C=CCNC1=C2C[C@@H](C)C[C@H](OC)[C@H](O)[C@@H](C)/C=C(\C)[C@H](OC(N)=O)[C@@H](OC)/C=C\C=C(/C)C(=O)NC(=CC1=O)C2=O" What is its recorded TGI?
15.1 µM

So what does the record say about TGI for CCOC(=O)OC1C(Br)C2CCC1(C)C2(C)C (centres undefined) ?
32.8 µM

Can you share its TGI? I mean this molecule: "CCC/C(Cl)=N/OC(NC(=O)OCC)(C(F)(F)F)C(F)(F)F"
30.9 µM

Which TGI is reported for this molecule? "COc1ccc(N=Nc2ccc3oc(=O)c(C(=O)Nc4ccccc4C)cc3c2)cc1"
> 10 µM

Any idea what TGI was measured for "CCNC1=C(NC(=O)c2ccccc2)C(=O)c2ccccc2C1=O" ?
> 100 µM

Which value of TGI has been reported for "C#C[C@@]1(O)[C@@H](CO)O[C@@H](n2cc(C(F)(F)F)c3c(N)ncnc32)[C@@H]1O" in the records?
> 100 µM

Requested read-out: TGI. Entry: "COC(=O)c1c(C)c2c(c(C)c1C(=O)OC)-c1c(C)ccc3ccc(C)c-2c13"
> 100 µM
